Biological target: menin (Homo sapiens, UniProt O00255, T541A)
Sequence (O00255 with tags, fused parts or gaps T541A): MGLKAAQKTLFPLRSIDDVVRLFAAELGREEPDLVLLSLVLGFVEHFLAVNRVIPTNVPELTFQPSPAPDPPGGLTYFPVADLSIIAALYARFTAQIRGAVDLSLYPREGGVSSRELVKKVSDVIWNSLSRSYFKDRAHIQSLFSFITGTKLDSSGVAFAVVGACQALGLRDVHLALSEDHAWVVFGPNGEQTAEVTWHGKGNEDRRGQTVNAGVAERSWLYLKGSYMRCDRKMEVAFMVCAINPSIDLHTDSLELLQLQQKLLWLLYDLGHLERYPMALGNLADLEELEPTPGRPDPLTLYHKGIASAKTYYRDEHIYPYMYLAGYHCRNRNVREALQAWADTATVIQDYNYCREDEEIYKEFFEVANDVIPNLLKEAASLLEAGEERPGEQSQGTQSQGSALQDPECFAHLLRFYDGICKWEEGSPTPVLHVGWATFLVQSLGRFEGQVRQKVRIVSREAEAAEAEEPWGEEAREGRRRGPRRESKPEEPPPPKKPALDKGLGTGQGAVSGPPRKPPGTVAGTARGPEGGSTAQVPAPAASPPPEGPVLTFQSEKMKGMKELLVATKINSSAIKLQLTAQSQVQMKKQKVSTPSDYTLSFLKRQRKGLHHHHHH
Assay: Menin/MLL fluorescence polarization (FP) assay
Format: binding
Details: 100 nM menin, 5 nM FITC-MBM1 peptide; individual measurements (not averaged); read-out: (1) Menin FP assay (IC50 (μM))
Assay endpoint: log10(IC50) (log10 of the value in µM)

[
  {
    "Molecule": "O=C([C@@H]1CC2(CC2)CN1)N1CC2(C1)CN(c1ncnc3sc(CC(F)(F)F)cc13)C2",
    "Assay endpoint": "log10(IC50)",
    "Observed measurement": -1.32
  },
  {
    "Molecule": "FC(F)(F)Cc1cc2c(N3CC[C@]4(CCN(Cc5ccccc5)C4)C3)ncnc2s1 (single isomer, unassigned) [Compound 20b]",
    "Assay endpoint": "log10(IC50)",
    "Observed measurement": -1.42
  },
  {
    "Molecule": "FC(F)(F)Cc1cc2c(N3CCC4(CN(Cc5cn[nH]c5)C4)C3)ncnc2s1",
    "Assay endpoint": "log10(IC50)",
    "Observed measurement": -0.46
  },
  {
    "Molecule": "N#Cc1cc2cc(CN3CC4(CCN(c5ncnc6sc(CC(F)(F)F)cc56)C4)C3)ccc2[nH]1",
    "Assay endpoint": "log10(IC50)",
    "Observed measurement": -1.27
  },
  {
    "Molecule": "Cn1cc(CN2CC3(C2)CN(c2ncnc4sc(CC(F)(F)F)cc24)C3)cn1",
    "Assay endpoint": "log10(IC50)",
    "Observed measurement": -0.29
  },
  {
    "Molecule": "FC(F)(F)Cc1cc2c(N3CC4(CCN(Cc5ccccc5)C4)C3)ncnc2s1",
    "Assay endpoint": "log10(IC50)",
    "Observed measurement": -0.87
  }
]
